All values here come from patent US8735409B2.

Recorded Percentage remaining 30 min, one value per entry.
Experiment: Stability in Human Liver Microsomes
Format: in vitro ADME
Details: pooled human liver microsomes 0.5 mg/mL protein, 1 mM NADPH, 37° C., 30 min, N=1
Give just the numeric value; % need not be written.

# Percentage remaining 30 min of [2H]C([2H])([2H])N(C/C=C/C(=O)Nc1cc2c(Nc3ccc(F)c(Cl)c3)ncnc2cc1O[C@H]1CCOC1)C([2H])([2H])[2H] [Example 1] = 85

Reported Percentage remaining 30 min of [2H]C([2H])([2H])Oc1cc2ncnc(Nc3cccc(C#C)c3)c2cc1OCCCCCCC(=O)NO [Example 5] : 48

Entry [2H]C1(Oc2cc3ncnc(Nc4cccc(C#C)c4)c3cc2NC(=O)/C=C/CN(C)C)CCOC1 (stereo not shown) [Example 4] — recorded Percentage remaining 30 min = 79

Consider CN(C)C/C=C/C(=O)Nc1cc2c(Nc3ccc(F)c(Cl)c3)ncnc2cc1O[C@H]1CCOC1 [TOVOK, reference compound] . Its measured Percentage remaining 30 min is 75

Form: compound = C#Cc1cccc(Nc2ncnc3cc(OC)c(OCCCCCCC(=O)NO)cc23)c1 [CUDC-101, reference compound] ; Percentage remaining 30 min = 35

Next:
Sure, the documented Percentage remaining 30 min for [2H]C1(Oc2cc3ncnc(Nc4ccc(F)c(Cl)c4)c3cc2NC(=O)/C=C/CN(C)C)CCOC1 (stereo not shown) [Example 3] is 84

Percentage remaining 30 min for [2H]C([2H])([2H])N(C/C=C/C(=O)Nc1cc2c(Nc3cccc(C#C)c3)ncnc2cc1O[C@H]1CCOC1)C([2H])([2H])[2H] [Example 2] is 80

* * *

Assay: Stability in Human Liver Microsomes
Format: in vitro ADME
Settings: pooled human liver microsomes 0.5 mg/mL protein, 1 mM NADPH, 37° C., 60 min, N=1
Binary label based on Percentage remaining 60 min with cut-off 60%: below gives t, not below gives f.

As a guide, the following entries are already answered.
Lab log: compare recorded Percentage remaining 60 min with 60%; is it strictly lower for `[2H]C([2H])([2H])N(C/C=C/C(=O)Nc1cc2c(Nc3cccc(C#C)c3)ncnc2cc1O[C@H]1CCOC1)C([2H])([2H])[2H]` ? f

Bench note: check whether `[2H]C([2H])([2H])Oc1cc2ncnc(Nc3cccc(C#C)c3)c2cc1OCCCCCCC(=O)NO` shows Percentage remaining 60 min below 60% t

Input [2H]C1(Oc2cc3ncnc(Nc4ccc(F)c(Cl)c4)c3cc2NC(=O)/C=C/CN(C)C)CCOC1 (stereo not shown) ; condition: Percentage remaining 60 min strictly below 60%. Does it hold? f

In plain terms, does C#Cc1cccc(Nc2ncnc3cc(OC)c(OCCCCCCC(=O)NO)cc23)c1 [CUDC-101, reference compound] come in under 60% for Percentage remaining 60 min? t

Take the compound `[2H]C([2H])([2H])N(C/C=C/C(=O)Nc1cc2c(Nc3ccc(F)c(Cl)c3)ncnc2cc1O[C@H]1CCOC1)C([2H])([2H])[2H]` and say whether its Percentage remaining 60 min is less than 60%. f

Next:
Please state whether Percentage remaining 60 min is below 60% for [2H]C1(Oc2cc3ncnc(Nc4cccc(C#C)c4)c3cc2NC(=O)/C=C/CN(C)C)CCOC1 (stereo not shown) f

* * *

Measured Percentage remaining 20 min by item
Test: Stability in Human Liver Microsomes
Assay type: in vitro ADME
Settings: pooled human liver microsomes 0.5 mg/mL protein, 1 mM NADPH, 37° C., 20 min, N=1
Method: The liver microsomes stability of compounds of Examples 1-4 was compared with that of TOVOK, and the compound of Example 5 with CUDC-101. The metabolic stability of compounds of the invention was tested using pooled liver microsomes prepared from mixed-gender humans, with 1 mM NADPH. The samples were analyzed using an LTQ-Orbitrap XL mass spectrometer. […]
Enter your answer as a number in %; do not include the unit.

get_value(item= CN(C)C/C=C/C(=O)Nc1cc2c(Nc3ccc(F)c(Cl)c3)ncnc2cc1O[C@H]1CCOC1 [TOVOK, reference compound] , readout=Percentage remaining 20 min) returns 85

More entries:
get_value(item= [2H]C1(Oc2cc3ncnc(Nc4ccc(F)c(Cl)c4)c3cc2NC(=O)/C=C/CN(C)C)CCOC1 (stereo not shown) [Example 3] , readout=Percentage remaining 20 min) returns 89

Reported Percentage remaining 20 min of [2H]C1(Oc2cc3ncnc(Nc4cccc(C#C)c4)c3cc2NC(=O)/C=C/CN(C)C)CCOC1 (stereo not shown) [Example 4] : 87

Notebook: [2H]C([2H])([2H])Oc1cc2ncnc(Nc3cccc(C#C)c3)c2cc1OCCCCCCC(=O)NO [Example 5] , Percentage remaining 20 min read as 68

The recorded Percentage remaining 20 min for [2H]C([2H])([2H])N(C/C=C/C(=O)Nc1cc2c(Nc3ccc(F)c(Cl)c3)ncnc2cc1O[C@H]1CCOC1)C([2H])([2H])[2H] [Example 1] is 90

Percentage remaining 20 min measured on [2H]C([2H])([2H])N(C/C=C/C(=O)Nc1cc2c(Nc3cccc(C#C)c3)ncnc2cc1O[C@H]1CCOC1)C([2H])([2H])[2H] [Example 2] = 87

# compound C#Cc1cccc(Nc2ncnc3cc(OC)c(OCCCCCCC(=O)NO)cc23)c1 [CUDC-101, reference compound] ; its Percentage remaining 20 min = 48
